- tested system: mouse cGAS (Mus musculus)
- Construct: recombinant full-length mouse cGAS in reaction buffer; His6-SUMO (N, cleaved yes); made in house; host or cells: E. coli BL21(DE3) RIL
- method summary: RapidFire mass spectrometry (RF-MS) cGAS enzymatic assay, cGAMP product formation
- Type: biochemical
- test parameters: Supplementary Table 4; analogs of RU166365, m-cGAS inhibition; read-out: IC50
We begin with a simple list: items and their reported IC50.

Request body: readout IC50, system mouse cGAS (Mus musculus), query Cc1nn(-c2nc3ccccc3[nH]2)c(O)c1C1OC(=O)c2c(Br)cccc21 (centres unmarked) [RU320463] . Return the value.
2.76 µM

Request body: readout IC50, system mouse cGAS (Mus musculus), query Cc1nn(-c2nc3cccc(-c4ccccc4)c3[nH]2)c(O)c1C1OC(=O)c2ccccc21 (centres unmarked) [RU320575] . Return the value.
2.35 µM

Request body: readout IC50, system mouse cGAS (Mus musculus), query Cc1nn(-c2ncc(-c3ccccc3)[nH]2)c(O)c1C1OC(=O)c2ccccc21 (centres unmarked) [RU320574] . Return the value.
> 25 µM

Request body: readout IC50, system mouse cGAS (Mus musculus), query COC(=O)c1cccc2c1C(c1c(C)nn(-c3nc4ccccc4[nH]3)c1O)OC2=O (centres unmarked) [RU320513] . Return the value.
> 25 µM

Request body: readout IC50, system mouse cGAS (Mus musculus), query Cc1nn(-c2nc3ccccc3[nH]2)c(O)c1C1NC(=O)c2ccccc21 (centres unmarked) [RU320465] . Return the value.
> 25 µM

Request body: readout IC50, system mouse cGAS (Mus musculus), query COc1cccc2nc(-n3nc(C)c(C4OC(=O)c5ccccc54)c3O)[nH]c12 (centres unmarked) [RU320460] . Return the value.
5.61 µM

Request body: readout IC50, system mouse cGAS (Mus musculus), query CC(=O)N1CCc2c(c(C)nn2-c2nc3ccccc3[nH]2)C1c1ccccc1 (centres unmarked) [RU320517] . Return the value.
> 25 µM

Request body: readout IC50, system mouse cGAS (Mus musculus), query Cc1cc(O)n(-c2nc3ccccc3[nH]2)n1 [RU281324] . Return the value.
> 25 µM

* * *

- tested system: mouse cGAS (Mus musculus, UniProt Q8C6L5)
- Construct: recombinant full-length mouse cGAS in reaction buffer; His6-SUMO (N, cleaved yes); made in house; host or cells: E. coli BL21(DE3) RIL
- Sequence (Q8C6L5 whole entry): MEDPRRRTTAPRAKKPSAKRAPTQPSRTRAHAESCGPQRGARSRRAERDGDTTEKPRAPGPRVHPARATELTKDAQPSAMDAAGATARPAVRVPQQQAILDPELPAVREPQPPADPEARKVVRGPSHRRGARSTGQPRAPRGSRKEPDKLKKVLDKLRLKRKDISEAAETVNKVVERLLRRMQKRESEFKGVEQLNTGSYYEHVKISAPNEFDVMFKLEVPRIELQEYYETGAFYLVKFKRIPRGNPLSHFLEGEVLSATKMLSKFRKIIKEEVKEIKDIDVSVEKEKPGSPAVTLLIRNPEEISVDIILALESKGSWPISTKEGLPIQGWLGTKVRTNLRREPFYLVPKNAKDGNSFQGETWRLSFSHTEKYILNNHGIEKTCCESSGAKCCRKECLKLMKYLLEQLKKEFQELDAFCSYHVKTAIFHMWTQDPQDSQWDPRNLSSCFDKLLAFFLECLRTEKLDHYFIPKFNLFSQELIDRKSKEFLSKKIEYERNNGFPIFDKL
- method summary: RapidFire mass spectrometry (RF-MS) cGAS enzymatic assay, cGAMP product formation
- Assay type: biochemical
- test parameters: Supplementary Table 2; compound 12.5 µM; read-out: % inhibition at 12.5 µM
readout label: inhibition at 12.5 µM (%)

# annotated cases, reported inhibition at 12.5 µM shown
| compound | tested system | inhibition at 12.5 µM / % |
| --- | --- | --- |
| O=C(Nc1ncc([N+](=O)[O-])s1)c1cccs1 [RU187339] | mouse cGAS (Mus musculus, UniProt Q8C6L5) | 86 |
| O=C(Nc1nncs1)c1cn(-c2ccccc2Br)nn1 [RU191669] | mouse cGAS (Mus musculus, UniProt Q8C6L5) | 71 |
| NC(=O)N1C(=O)/C(=C(\O)c2cccs2)c2cc(Cl)ccc21 [RU187170] | mouse cGAS (Mus musculus, UniProt Q8C6L5) | 70 |

A = OCc1cn(-c2ccccc2Cl)nn1 [RU219771]
B = N#CC1=C(N)SC(N)=C(C#N)C1c1ccc([N+](=O)[O-])cc1 [RU107796]
Which record would sort first by descending inhibition at 12.5 µM, A or B ? Answer with the label corresponding to your selection.
A
